Where do these numbers come from? They come from paper PMC12417622.

assay-protocol: Pharmacokinetics of methotrexate after intravenous administration with and without febuxostat in rats
Format: in vivo, rat
condition-details: male, Wistar, rat, plasma, iv, 2 mg/kg, methotrexate 2 mg/kg i.v., febuxostat (−), mean ± S.D., n = 4, read-out: AUC0–90 min (converted)
assay-readout: AUC(0-t) (ng·h/mL)
Please state the figure in ng·h/mL; there is no need to write the unit.

Write down AUC(0-t) measured for item CN(Cc1cnc2nc(N)nc(N)c2n1)c1ccc(C(=O)N[C@@H](CCC(=O)O)C(=O)O)cc1 [methotrexate]
2170

---

assay-protocol: Pharmacokinetics of methotrexate after intravenous administration with and without febuxostat in rats
Assay type: in vivo, rat
condition-details: male, Wistar, rat, plasma, iv, 2 mg/kg, methotrexate 2 mg/kg i.v., febuxostat (+) 1 mg/kg i.v., mean ± S.D., n = 4, read-out: CLtot
assay-readout: clearance (L/h/kg)
Please state the figure in L/h/kg; there is no need to write the unit.

Write down clearance measured for item CN(Cc1cnc2nc(N)nc(N)c2n1)c1ccc(C(=O)N[C@@H](CCC(=O)O)C(=O)O)cc1 [methotrexate]
0.481
